src = patent US20200199204A1

Molecular target: HIV-1 Env of ZM109.4 (HIV-1)
Assay: cell-based or functional assay
Could you please report measured neutralization IC50 for the items listed next?

Example entries and their recorded answers appear below.
| Binder | Value Observed |
| --- | --- |
| CAP256-VRC26.02 (antibody, V domains shown) VH: EVQLVESGGGVVQPGRSLRLSCAASQFSFGNYGMHWVRQAPGKGLEWVAAISFAGTKTNYADSVKGRFTISRDNSKNTVYLQMNSLRAEDTALYFCAKDIREYECEYWTSDYYDFGRPQPCIDSRGVVGTFDVWGQGTMVTVSS VL: QSVLTQPPSVSAAPGQKVTISCSGSNSNIGNKDVSWYQQIPATAPKLLIYENNKRPSGISDRFSGSKSGTSATLAITGLQTGDEADYYCATWDGRVSVIGTGTNVIVLG | > 50 µg/mL |
| CAP256-VRC26.04 (antibody, V domains shown) VH: EVQLVESGGGVVQPGKSLRLSCAASQFSFNRYGMHWVRQAPGKGLEWVAAISYDGTDKYHADKVWGRFTISRDNSKNTLYLQMNSLRAEDTALYYCAKDLREDECEEWWSDYYDFGKQLPCRKSRGVAGIFDKWGQGTMVIVSS VL: QPVLTQPPSVSAAPGQKVTISCSGSSSNIGNNFVSWYQQRPGTAPSLLIYETNKRPSGIPDRFSGSKSATSATLAITGLQTGDEADYYCATWAASLTSARVFGTGTKVIVSG | > 50 µg/mL |
| CAP256-VRC26.05 (antibody, V domains shown) VH: EVQLVESGGGVVQPGRSLRLSCAASHFSLSSYGMHWVRQAPGKGLEWVTGISFAGTKTYYGDSVRGRFTVSRDISKNTLFLQMNSLRPDDTAMYYCARDQRYYECEEWASDYYDFGREQPCLDPRGVVGIFDLWGQGTMVTVSS VL: QSALTQPPSVSAAPGQKVTISCSGNIGNNYVSWYQQVPGTAPKLLIYENNKRPSGIPDRFSGSKSGTSATLVITGLQTGDEADFYCGTWGGSLRTGGVLGTGTRVTVLG | 26.5 µg/mL |
| CAP256-VRC26.03 (antibody, V domains shown) VH: EVQLVESGGGVVQPGKSLRLSCAASRFSFNRYGMHWVRQAPGKGLEWVAAISYDGTDKYHADKVWGRFTISRDNSKNTLYLQMNSLRAEDTALYYCAKDLREDECEEWWSDYYDFGKQLPCRKSRGVAGIFDGWGQGTMVTVSS VL: QSVLTQPPSVSAAPGQKVTISCSGSSSNIGNNFVSWYQQRPGTAPKILIYENNKRPSETPDRFSGSKSGTSATLAITGLQTADEAEYYCATWSASLSSARVFGTGTRITVLG | > 50 µg/mL |

Please give measured neutralization IC50 of the following entry: CAP256-VRC26.10 (antibody, V domains shown) VH: QAILVESGGGVVQPGRSLRLSCAASQFTFSGHGLHWVRQAPGKGLEWVASISFAGTKMDYADSVKGRFAISRDNSKNTLYLQMNSLRVEDTALYYCAKDMREYECEYWTSDYYDFGRPQPCIDRRGVVGIFDMWGQGTMVTVST VL: QSVLTQPPSVSAAPGQKVTISCSGSSSNIGDNYVSWYQHLPGTAPKLLIYENTRRPSGIPDRFSGSKSGTSATLAITGLQTGDEADYYCGTWDVRPNRGAVFGTGTKVTVLG
> 50 µg/mL
